Entry source: PubChem BioAssay (NCI)

# Tested on: A498 renal
# method-notes: NCI-60 one-dose screen, 48 h (100 = growth as untreated, 0 = no growth, -100 = all killed)
# recorded-conditions: 10 µM unless noted
Compounds without any hit were thinned out: in the full panel of roughly 83,000, 20% have a hit.

[
  {
    "compound": "CCOC(=O)C1=C(C)N2C(=NC3=C(CCCC/C3=C\\c3ccccc3)C2c2ccccc2)S1 (centres undefined)",
    "result-unit": "%",
    "growth": 92.3
  },
  {
    "compound": "Clc1cccc(Cl)c1Nc1ccc2nnc(-c3ccncc3)n2n1",
    "result-unit": "%",
    "growth": 90.5
  },
  {
    "compound": "Cc1ccc(C)c2c1sc1nc3nc4sc5ccccc5n4c(=N)c3c(=O)n12",
    "result-unit": "%",
    "growth": 69.1
  },
  {
    "compound": "Nc1cc(Br)c(-c2nnc(CCC(=O)c3nc4ccccc4[nH]3)o2)c(Br)c1",
    "result-unit": "%",
    "growth": 71.7
  }
]
